System: subcutaneously pentetrazol-injected model (scPTZ)
Assay: Subcutaneously pentetrazol-injected model (scPTZ) test
Type: in vivo, mice
Conditions: Mus musculus, po, 1 h, 100 mg/kg oral, Slc: ddY male mice, 3 per group, pentetrazol 85 mg/kg s.c. after 1 hour, observed 30 minutes for clonic convulsion; read-out: scPTZ (positive number/tested number) (converted)
Endpoint Label: responders at 100 mg/kg (%)
All answers are understood in %, so give the number only.

Below are worked cases with known answers.
# Compound, Measure Unit, responders at 100 mg/kg
measured = [
    ("CNC(=O)C(F)c1ccccc1-c1cccc(F)c1 (centres unmarked) [Example 161]", "%", 0),
    ("CSc1cccc(-c2ccccc2CC(N)=O)c1 [Example 94]", "%", 33.3),
    ("NC(=O)C(O)c1cc(F)ccc1-c1ccccc1 (centres unmarked) [Example 186]", "%", 66.7),
    ("NC(=O)C(O)c1ccccc1-c1cccc(F)c1 (single isomer, unassigned) [Example 211]", "%", 66.7),
]

Now consider a different compound.
### Prompt Report responders at 100 mg/kg for NC(=O)Cc1c(F)cccc1-c1ccccc1 [Example 118, 2-(3-fluorobiphenyl-2-yl)acetamide] please.
### Response 33.3

====

Test system: maximum electroshock seizure (MES) model
Test: Maximum electroshock seizure (MES) model test
Assay type: in vivo, mice
Conditions: Mus musculus, po, 1 h, 100 mg/kg oral, Slc: ddY male mice, 3 per group, electrical stimulation 1 hour after administration; inhibition of hind limb extension; read-out: MES (positive number/tested number) (converted)
We begin with a simple list: items and their reported responders at 100 mg/kg.
Answer format: numeric, % implied, no suffix.

# Molecule, Value
records = [
    ("NC(=O)Cc1cc(F)ccc1-c1cccc(F)c1 [Example 133]", 100),
    ("NC(=O)Cc1ccccc1-c1cc(F)ccc1C(F)(F)F [Example 82]", 33.3),
    ("NC(=O)C(F)c1ccccc1-c1cccc(F)c1 (centres unmarked) [Example 160]", 66.7),
    ("NC(=O)Cc1ccccc1-c1cc(F)c(F)cc1F [Example 69]", 33.3),
]

### Prompt Recorded responders at 100 mg/kg for NC(=O)Cc1cc(Cl)ccc1-c1ccc(C(F)(F)F)cc1 [Example 142] with maximum electroshock seizure (MES) model, please?
### Response 66.7

====

System: maximum electroshock seizure (MES) model
Assay: Maximum electroshock seizure (MES) model test
Type: in vivo, mice
Settings: Mus musculus, po, 1 h, 50 mg/kg oral, Slc: ddY male mice, 3 per group, electrical stimulation 1 hour after administration; inhibition of hind limb extension; read-out: MES (positive number/tested number) (converted)
From the text: In order to evaluate the antiepileptic activity of each drug, maximum electroshock seizure (MES) model, subcutaneously pentetrazol-injected model (scPTZ), and amygdala kindling model in rats were used because they show a good clinical prediction. Test 1: Test with Maximum Electroshock Seizure (MES) Model Test 1 evaluates the anticonvulsant action of medicaments. Animal model used herein represents the clinical phenotypes of generalized tonic seizure and secondarily generalized tonic-clonic seizure. […]
Endpoint Label: responders at 50 mg/kg (%)
Number only, in %; omit the unit.

### Prompt Would you kindly share the measured responders at 50 mg/kg for NC(=O)Cc1ccc(Cl)cc1-c1ccccc1F ?
### Response 66.7

### Prompt Would you kindly repeat that for NC(=O)[C@H](O)c1ccccc1-c1ccccc1 (single isomer, unassigned) [Example 207, 2-(Biphenyl-2-yl)-2R-hydroxyacetamide] ?
### Response 66.7

### Prompt Try NC(=O)Cc1cc(F)ccc1-c1cccc(Cl)c1 next.
### Response 33.3

### Prompt Moving on to NC(=O)Cc1ccccc1-c1ccccc1 [Example 50, 2-(biphenyl-2-yl)acetamide]
### Response 66.7

### Prompt Moving on to NC(=O)C(O)c1ccccc1-c1ccccc1F (centres unmarked)
### Response 100

### Prompt Next compound: NC(=O)Cc1ccccc1-c1cc(Cl)ccc1Cl [Example 95, 2-(2′,5′-dichlorobiphenyl-2-yl)acetamide]
### Response 33.3

### Prompt Do the same for NC(=O)Cc1ccccc1-c1cc(Cl)cc(Cl)c1Cl please
### Response 100

### Prompt And the next one, COC(C(N)=O)c1ccccc1-c1ccccc1F (centres unmarked) ?
### Response 0

### Prompt Further, for NC(=O)C(F)(F)c1ccccc1-c1cccc(Cl)c1 ?
### Response 100

### Prompt Now consider NC(=O)Cc1ccccc1-c1cc(F)cc(C(F)(F)F)c1 .
### Response 33.3

### Prompt And the next one, NC(=O)Cc1cc(F)ccc1-c1ccccc1F [Example 46, 2-(2′,4-difluorobiphenyl-2-yl)acetamide] ?
### Response 66.7

### Prompt Would you kindly repeat that for CCNC(=O)Cc1ccccc1-c1cccc(F)c1 ?
### Response 0

### Prompt How about this compound: NC(=O)Cc1ccc(F)cc1-c1ccccc1 [Example 39, 2-(5-fluorobiphenyl-2-yl)acetamide]
### Response 100

### Prompt And CNC(=O)C(F)c1ccccc1-c1ccccc1 (centres unmarked) ?
### Response 33.3

====

System: maximum electroshock seizure (MES) model
Assay: Maximum electroshock seizure (MES) model test
Assay type: in vivo, mice
Settings: Mus musculus, po, 1 h, 50 mg/kg oral, Slc: ddY male mice, 3 per group, electrical stimulation 1 hour after administration; inhibition of hind limb extension; read-out: MES (positive number/tested number) (converted)
# responders at 50 mg/kg values compiled below
Give a bare numeral; the unit % is implied.

### Prompt Reported responders at 50 mg/kg, compound NC(=O)Cc1ccccc1-c1ccc(F)cc1 [Example 22, 2-(4′-fluorobiphenyl-2-yl)acetamide] : ____
### Response 66.7

### Prompt Ok, now CNC(=O)C(F)c1ccccc1-c1ccc(F)cc1 (stereo not shown) [Example 166]
### Response 66.7

### Prompt Entry to check: CNC(=O)Cc1ccc(Cl)cc1-c1ccccc1 [Example 124]
### Response 0

### Prompt Next compound: NC(=O)C(O)c1ccc(F)cc1-c1cccc(F)c1 (stereo not shown) [Example 182]
### Response 33.3

### Prompt Same question, CN(C)C(=O)Cc1ccccc1-c1cccc(Cl)c1 [Example 15] this time
### Response 0

### Prompt And the next one, NC(=O)Cc1ccccc1-c1cccc(Br)c1 [Example 52, 2-(3′-bromobiphenyl-2-yl)acetamide] ?
### Response 66.7

### Prompt For NC(=O)Cc1cc(F)c(F)cc1-c1ccccc1 [Example 110] then?
### Response 0

### Prompt Do the same for NC(=O)Cc1ccccc1-c1ccc(F)c(F)c1F [Example 89] please
### Response 0

### Prompt Follow-up item: NC(=O)Cc1ccccc1-c1ccc(C(F)(F)F)cc1Cl [Example 84]
### Response 0

### Prompt Thanks! And NC(=O)Cc1ccccc1-c1cccc(F)c1F [Example 20, 2-(2′,3′-difluorobiphenyl-2-yl)acetamide] ?
### Response 66.7

### Prompt Could you do the same for CNC(=O)C1(c2ccccc2-c2cccc(F)c2)CC1 [Example 159] , please?
### Response 33.3

### Prompt Note, next up: NC(=O)C(O)c1ccccc1-c1cccc(F)c1 (stereo not shown) [Example 178]
### Response 66.7

### Prompt Please answer likewise for NC(=O)C(O)c1ccccc1-c1cccc(Cl)c1 (stereo not shown) [Example 180]
### Response 33.3

### Prompt Do the same for NC(=O)Cc1ccccc1-c1cc(C(F)(F)F)ccc1F [Example 83] please
### Response 0

====

System: maximum electroshock seizure (MES) model
Assay: Maximum electroshock seizure (MES) model test
Type: in vivo, mice
Details: Mus musculus, po, 1 h, 100 mg/kg oral, Slc: ddY male mice, 3 per group, electrical stimulation 1 hour after administration; inhibition of hind limb extension; read-out: MES (positive number/tested number) (converted)
Below, each of the compounds is paired with its reported responders at 100 mg/kg value.
Numeric answer only, unit % assumed.

Example entries begin here.
# Compound, Endpoint Label, Value
data = [
    ("NC(=O)C(F)(F)c1ccccc1-c1ccccc1F [Example 169]", "responders at 100 mg/kg", 100),
    ("CNC(=O)Cc1cc(C(F)(F)F)ccc1-c1ccccc1 [Example 117]", "responders at 100 mg/kg", 0),
    ("NC(=O)Cc1ccc(F)cc1-c1ccccc1F [Example 41, 2-(2′,5-difluorobiphenyl-2-yl)acetamide]", "responders at 100 mg/kg", 100),
]

### Prompt Tell me the measured responders at 100 mg/kg of NC(=O)Cc1ccc(Cl)cc1-c1ccccc1F [Example 125] , please.
### Response 100

### Prompt Moving on to the next compound: NC(=O)Cc1cc(F)ccc1-c1cccc(Cl)c1 [Example 48]
### Response 100

### Prompt Same question for NC(=O)Cc1cc(Cl)ccc1-c1ccc(Cl)cc1 [Example 109, 2-(4,4′-dichlorobiphenyl-2-yl)acetamide] please.
### Response 100

### Prompt # iterate: NC(=O)C(F)c1ccccc1-c1ccccc1F (stereo not drawn) [Example 164]
### Response 100

### Prompt Next record, please: NC(=O)Cc1ccccc1-c1cc(F)cc(Cl)c1 [Example 80]
### Response 100

### Prompt # repeat for NC(=O)Cc1ccccc1-c1cc(Cl)ccc1Cl [Example 95, 2-(2′,5′-dichlorobiphenyl-2-yl)acetamide]
### Response 66.7
